Each entry below lists one item and its recorded melting point value.
Counter-ions that a name gives are not always drawn.
result type: melting point

{"molecule": "Cl.Cl.N#C[C@@H]1CC(F)(F)CN1C(=O)CNC1C2CCC1CN(c1ncccn1)C2 (stereo partly drawn)", "result type": "melting point", "measured value": "> 300 °C"}
{"molecule": "CC1(NCC(=O)N2CC(F)(F)C[C@H]2C#N)CC2CCC(C1)N2c1ncccn1.Cl.Cl (stereo partly drawn)", "result type": "melting point", "measured value": "169 to 172 °C"}
{"molecule": "N#C[C@H]1COCN1C(=O)CNC12CC3CC(C1)CC(Nc1ncccn1)(C3)C2 (as salt: hydrochloride)", "result type": "melting point", "measured value": "205 to 207 °C"}
{"molecule": "N#C[C@@H]1CCCN1C(=O)CNC1C2CCC1CN(c1ncccn1)C2 (stereo partly drawn) (as salt: hydrochloride)", "result type": "melting point", "measured value": "149 to 152 °C"}
{"molecule": "N#C[C@@H]1CC(F)(F)CN1C(=O)CNC1C2CCC1CN(c1ncccn1)C2 (stereo partly drawn)", "result type": "melting point", "measured value": "50 to 52 °C"}
{"molecule": "N#Cc1ccc(CNC23CC4CC(CC(NCC(=O)N5CC(F)(F)C[C@H]5C#N)(C4)C2)C3)cc1 (as salt: hydrochloride)", "result type": "melting point", "measured value": "226 to 231 °C"}

====

- study target: DPP-IV enzyme (solubilized crude extractum from CaCo/Tc-7 cells) (Homo sapiens, UniProt P27487)
- Construct: solubilized crude extractum from CaCo/Tc-7 cells; endogenous in cells
- Sequence (P27487 whole entry): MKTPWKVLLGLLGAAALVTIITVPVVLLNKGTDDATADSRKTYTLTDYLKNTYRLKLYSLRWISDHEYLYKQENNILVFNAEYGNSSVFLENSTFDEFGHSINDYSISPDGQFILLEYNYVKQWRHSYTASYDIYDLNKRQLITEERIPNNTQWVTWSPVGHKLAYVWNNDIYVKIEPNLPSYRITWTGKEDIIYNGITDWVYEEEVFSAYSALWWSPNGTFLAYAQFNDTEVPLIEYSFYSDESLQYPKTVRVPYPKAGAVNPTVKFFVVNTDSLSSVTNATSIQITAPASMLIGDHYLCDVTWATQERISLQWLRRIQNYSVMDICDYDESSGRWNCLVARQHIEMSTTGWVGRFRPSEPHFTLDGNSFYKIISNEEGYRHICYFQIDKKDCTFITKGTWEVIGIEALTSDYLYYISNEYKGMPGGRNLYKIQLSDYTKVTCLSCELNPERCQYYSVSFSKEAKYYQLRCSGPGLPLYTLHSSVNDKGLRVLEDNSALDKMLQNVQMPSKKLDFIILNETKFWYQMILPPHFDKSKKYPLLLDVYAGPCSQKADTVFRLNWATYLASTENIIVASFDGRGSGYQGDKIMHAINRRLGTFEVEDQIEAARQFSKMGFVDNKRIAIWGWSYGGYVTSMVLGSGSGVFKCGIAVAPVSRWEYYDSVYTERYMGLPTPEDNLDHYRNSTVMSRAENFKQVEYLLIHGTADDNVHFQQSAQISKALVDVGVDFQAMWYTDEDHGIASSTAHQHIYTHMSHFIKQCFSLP
- assay protocol: DPP-IV enzyme inhibitory activity, fluorometric H-Gly-Pro-AMC assay
- assay context: H-Gly-Pro-AMC substrate 250 μM final; 60 min preincubation at 37° C.; 30 min reaction at 37° C.; Tris-HCl pH=7.5
pIC50: −log10 of the molar value.
result type: pIC50

{"molecule": "N#C[C@H]1COCN1C(=O)CNC12CC3CC(C1)CC(Nc1ncccn1)(C3)C2 [Example 9]", "result type": "pIC50", "measured value": 7.68}
{"molecule": "N#Cc1ccc(CNC23CC4CC(CC(NCC(=O)N5CC(F)(F)C[C@H]5C#N)(C4)C2)C3)cc1 [Example 27]", "result type": "pIC50", "measured value": 7.80}
{"molecule": "N#C[C@@H]1CCCN1C(=O)CNC1C2CCC1CN(c1ncccn1)C2 (stereo partly drawn) [Example 40]", "result type": "pIC50", "measured value": 7.52}
